Test system: SEM cells
Assay: cell viability relative to DMSO control; higher = less cytotoxic
Details: RPMI 5 mM glucose + 10% FBS; 48 h; 0.000781 µM
Recorded endpoint: cell viability (%)
State just the number; it will be interpreted in %.

INSERT INTO assay_data (compound, target_entity, units_label, value_observed) VALUES
  ('O=[S+]([O-])(/N=C/c1c(O)ccc2ccccc12)c1cccs1', 'SEM cells', '%', 113);

Exercise: Identify measured cell viability associated with O=[S+]([O-])(O)c1ccc2cc(/N=N/c3cc([S+](=O)([O-])O)c4cccnc4c3O)ccc2c1
Solution: 115

Exercise: Identify measured cell viability associated with O=C(C[C@@H]1C/C=C\CCC(=O)O[C@H](c2ccccc2)CNC1=O)NCc1ccc(Cl)cc1
Solution: 85.7

Exercise: Identify measured cell viability associated with FC(F)(F)C1=CC=C2C(SCCCCCO\C3=C\O\C(CN4CCOCC4)=C/C3=O)=CC=NC2=C1
Solution: 66.6

Exercise: Identify measured cell viability associated with CCC(=O)OC1CCC2C3CCC/4=C/C(=O)CC[C@@]4(C)C3CC[C@]12C (some centres not stated)
Solution: 102

Exercise: Identify measured cell viability associated with NCCCC(O)(P(=O)(O)O)P(=O)(O)O.O.O.O.[Na+]
Solution: 124

====

In this section, each of the molecules is paired with its reported cell viability.
System: P12-Ichikawa
Assay: cell viability relative to DMSO control; higher = less cytotoxic
Conditions: RPMI 5 mM glucose + 10% dialyzed FBS; 48 h; 0.000781 µM
State just the number; it will be interpreted in %.

INSERT INTO results (molecule, units_label, value_observed) VALUES
  ('C[C@H](NC(=O)Cc1cc(F)cc(F)c1)C(=O)N[C@@H]1C(=O)N(C)c2ccccc2-c2ccccc21', '%', 97.7),
  ('CNC(=O)c1ccc(N2C(=S)N(c3ccc(C#N)c(C(F)(F)F)c3)C(=O)C2(C)C)cc1F', '%', 102),
  ('C=CCc1cc(OC)c(O)c(C(=O)NCCO)c1', '%', 98.9),
  ('CC(C)(C)Cn1c(N)nc2ccc(-c3[nH]c(C(C)(C)C)nc3-c3ccc(F)cc3)nc21', '%', 85.8);

Consider the record given below.
Exercise: Identify measured cell viability associated with CC(Cc1ccc(O)c(O)c1)(NN)C(=O)O (stereo not given)
Solution: 107

====

Tested on: NOMO1
Assay: cell viability relative to DMSO control; higher = less cytotoxic
Details: RPMI 5 mM glucose + 10% FBS; 48 h; 0.000781 µM
Recorded endpoint: cell viability (%)
State just the number; it will be interpreted in %.

Solved entries:
INSERT INTO measurements (molecule, units_label, value_observed) VALUES
  ('C=CC(=O)Nc1cccc(Oc2nc(Nc3ccc(N4CCN(C)CC4)cc3OC)ncc2Cl)c1', '%', 72.9),
  ('CCCC1=N[N](C)C2=C1\N=C(/NC2=O)C3=CC(=CC=C3OCC)[S+]([O-])(=O)N4CCN(C)CC4', '%', 79.5),
  ('COC/1=C/[C@@H]2[C@@H]3CC4=C(C(=C(OC)C=C4)O)[C@]2(CCN3C)CC1=O', '%', 118),
  ('CC(C[N+](C)(C)C)OC(N)=O (centres undefined)', '%', 115),
  ('CC(Cc1ccc(O)c(O)c1)(NN)C(=O)O (centres undefined)', '%', 114);

Exercise: Identify measured cell viability associated with COc1ccccc1OCCNCC(O)COc1cccc2[nH]c3ccccc3c12 (centres undefined)
Solution: 116

Exercise: Identify measured cell viability associated with CCNC(=O)Nc1ccc(-c2nc3c(c(N4CCOC[C@@H]4C)n2)CCN(C2COC2)C3)cc1
Solution: 109

Exercise: Identify measured cell viability associated with CCCCOc1ccc(CC(=O)NO)cc1
Solution: 101

Exercise: Identify measured cell viability associated with Oc1cc2c(cc1O)C1c3ccc(O)c(O)c3OCC1(O)C2 (centres undefined)
Solution: 102
